assay: inhibitors of TNFa-induced NFkB p65 translocation, primary screen, imaging, HUVEC, MLSMR starter and 10KST1 sets (AID 438); settings: HUVEC TNFa-induced p65 nuclear translocation; measured here: nuclei count (cytotoxicity indicator), at 2.08 µM;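 further: compound added about 3h40 before a 20 min TNFalpha stimulation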
measure: cell count

[[record]]
compound = "COc1cc(/C=N/n2nnnc2N)ccc1O"
measured_value = 594


The compound listed as "COc1ccccc1N1CCN(C(=O)c2c(-c3c(Cl)cccc3Cl)noc2C)CC1" has a reported cell count of 652

Data point: "Cn1c(NCc2ccccc2)nc2c1c(=O)n(Cc1ccc(Br)cc1)c(=O)n2C" ; cell count = 696

CC1(C)CC(=O)C2=C(C1)OC(N)=C(C#N)C2C1C=CCCC1 (stereo unspecified) yielded cell count of 725

Sure, the documented cell count for "CCCCNC(=O)c1nnn(-c2ccccc2)c1N" is 311

Field cell count (entry C=CCn1c2ccccc2c2nnc(SCC(=O)NC(C(=O)OC)C(C)C)nc21 (stereo unspecified) ) reads 787

====

Each entry below carries its recorded inhibition.
assay: inhibitors of E-selectin induction by TNFa, primary screen, imaging, HUVEC, immunofluorescence, MLSMR starter and 10KST1 sets (AID 487); details: HUVEC TNFalpha-induced E-selectin immunofluorescence imaging, at 2 µM; stronger effect = higher value;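 further: signal is fraction of cell area covered by stained E-selectin grains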
Provide the reading as a plain figure in %.

Would you please look over these solved cases?
[[record]]
compound = "CCCCc1nc(N2CCOCC2)c(C#N)c2c1CCCC2"
measure = "inhibition"
measured_value = -89.9

[[record]]
compound = "CC1=C(C(=O)OC2CCCCCC2)C(c2ccc(C)o2)C2=C(CCCC2=O)N1 (stereo unspecified)"
measure = "inhibition"
measured_value = -22.9

[[record]]
compound = "O=C(CSc1ncnc2c1cnn2Cc1ccccc1)Nc1ccc2c(c1)OCCO2"
measure = "inhibition"
measured_value = 11.1


Record summary for CCCCN(C)CCCNC(=O)CC1Oc2ccccc2NC1=O (stereo unspecified) : reported inhibition = -11.7

Sure, the documented inhibition for "Cc1ccc(C)c(N2CCN(C(=O)c3cc4ccccn4n3)CC2)c1" is -31.8

response.value for "Cc1coc2cc3oc(=O)c4c(c3cc12)CCC4" (field: inhibition) = -48.2

====

target: Muscarinic acetylcholine receptor M4 (Homo sapiens); assay: compounds altering M4/GIRK thallium flux, either direction, primary screen, M4 allosteric agonist project, cell-based, HEK293 M4/GIRK, BTC-AM (AID 625); details: at 10 µM, actives lie on both sides;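 further: thallium influx through GIRK channels coupled to M4 in HEK293 cells with BTC-AM dye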
The molecules listed here are annotated with their fluorescence slope.
Form rule: numeric answer, no unit written next to it.

[[record]]
molecule = "Nc1nc2n(n1)C(c1cccs1)CC(c1ccc(F)cc1)N2 (configuration not stated)"
measured_value = 0.00473


// moving on: another record for fluorescence slope
Please fill in: fluorescence slope reported for "O=C(O)CCc1nn2cc(-c3ccccc3)nc2[nH]c1=O" = 0.00553

====

assay: inhibitors of mutant huntingtin aggregation, primary screen, imaging, exon1htt(103Q)mCFP cells, high-content imaging (AID 483); conditions: exon1htt(103Q)mCFP cell line, aggregate imaging, at 2 µM; measured here: cell count, toxicity;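 further: compound exposure lasted 3 days before fixation; percent of the per-plate median nuclei count of sample wells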
# key: entry, value: nuclei count
Could you give me the number in %? Just the number is fine.

[[record]]
molecule = "Cc1ccc(Cn2c(NCCc3ccccc3)nc3c2c(=O)n(C)c(=O)n3C)cc1"
measure = "nuclei count"
measured_value = 98.7


Value of measured nuclei count for the entry "Cc1ccc(CCSCC(=O)O)cn1" : 90

Lab note: CC1=C(C(=O)OC2CCCCCC2)C(c2ccc(C)o2)C2=C(CCCC2=O)N1 (stereo unspecified) gave nuclei count of 102
